// data source = ChEMBL document CHEMBL3593244

TARGET SYSTEM: Histone deacetylase (HDAC1 and HDAC2) (Homo sapiens, UniProt Q13547+Q92769)
PROTOCOL TEXT: Inhibition of HDAC1/2 in human HeLa cell nuclear extracts preincubated for 5 mins followed by substrate addition measured after 0.5 hrs by Color de Lys assay
Format: cell-based
Below, each entry is listed alongside its reported IC50.

Illustrative cases are given below, each with its answer.
CCCCNC(=O)c1cc(CNC(=O)CCCCCCC(=O)NO)nc2ccccc12    > 1000 nM
O=C(CCCCCCCC(=O)NCc1cc(C(=O)NCc2ccccc2)c2ccccc2n1)NO    > 1000 nM
O=C(CCCCCCC(=O)NCc1cc(C(=O)Nc2ccccc2)c2cc(Br)ccc2n1)NO    > 1000 nM

Q) Which IC50 value is on record for O=C(CCCC(=O)NCc1ccc2ccccc2n1)NO ?
A) > 1000 nM

Q) Look up IC50 for this compound: O=C(CCCCC(=O)NCc1cc(C(=O)NCc2ccccc2)c2ccccc2n1)NO
A) > 1000 nM

Q) Any idea what its IC50 is? The compound is O=C(CCCCCCC(=O)NCc1cc(C(=O)NCc2ccccc2)c2cc(Br)ccc2n1)NO
A) > 1000 nM

Q) # lookup: IC50 of O=C(CCCCCC(=O)NCc1ccc2cc(I)ccc2n1)NO
A) 132 nM

Q) For O=C(CCCCCCC(=O)NCc1ccc2ccccc2n1)NO , what is its reported IC50?
A) 678 nM

Q) Entry O=C(CCCC(=O)NCc1cc(C(=O)NCc2ccccc2)c2ccccc2n1)NO : reported IC50 = ?
A) > 1000 nM

Q) GET /values?readout=IC50&item= CNC(=O)c1cc(CNC(=O)CCCCCC(=O)NO)nc2ccccc12
A) 642 nM

Q) Entry under review: O=C(CCCCC(=O)NCc1ccc2ccccc2n1)NO . Reported IC50?
A) > 1000 nM

Q) Given the compound O=C(CCCCCCCC(=O)NCc1cc(C(=O)NCc2ccccc2)c2cc(Br)ccc2n1)NO , what is its reported IC50?
A) > 1000 nM
